# Target Desc: Cytochrome P450 2D6 (Homo sapiens, UniProt P10635)
# Sequence (P10635 whole entry): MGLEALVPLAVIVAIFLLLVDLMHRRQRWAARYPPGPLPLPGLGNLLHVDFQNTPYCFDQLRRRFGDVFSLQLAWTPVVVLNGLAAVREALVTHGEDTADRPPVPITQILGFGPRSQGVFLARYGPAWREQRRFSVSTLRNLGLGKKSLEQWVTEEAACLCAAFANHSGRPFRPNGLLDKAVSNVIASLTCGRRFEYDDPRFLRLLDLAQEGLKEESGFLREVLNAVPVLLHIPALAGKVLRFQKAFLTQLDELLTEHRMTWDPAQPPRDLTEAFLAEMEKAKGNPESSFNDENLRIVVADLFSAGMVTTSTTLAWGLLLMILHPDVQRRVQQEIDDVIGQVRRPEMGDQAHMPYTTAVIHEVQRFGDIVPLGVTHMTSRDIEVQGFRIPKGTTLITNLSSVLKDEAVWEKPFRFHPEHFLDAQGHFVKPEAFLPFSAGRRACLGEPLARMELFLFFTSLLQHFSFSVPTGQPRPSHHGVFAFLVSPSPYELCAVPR
Record form. Attribute: pIC50. Fill in for each entry.
Lab note — pIC50 values are minus log10 of concentrations in M.

stdin: Look at this compound and give its reported pIC50. `Clc1ccc([C@@H]2CC=CCNC2)cc1Cl`
stdout: 5.51

stdin: Look at this compound and give its reported pIC50. Fc1ccc(C2CC=CCNC2)cc1Cl (stereo unspecified)
stdout: 5.19

stdin: Look at this compound and give its reported pIC50. Clc1ccc(C2CC=CCNC2)cc1Cl (racemic)
stdout: 5.29

stdin: Look at this compound and give its reported pIC50. Clc1ccc(C2CCCCNC2)cc1Cl (racemic)
stdout: 5.64

stdin: Look at this compound and give its reported pIC50. Cc1cc(C2CC=CCN(C)C2)ccc1Cl (stereo unspecified)
stdout: 4.74

stdin: Look at this compound and give its reported pIC50. Cc1ccc(C2CC=CCNC2)cc1Cl (stereo unspecified)
stdout: 5.25

stdin: Look at this compound and give its reported pIC50. `COCCN1CC=CC[C@H](c2ccc(Cl)c(Cl)c2)C1`
stdout: 5.41

stdin: Look at this compound and give its reported pIC50. `Clc1ccc([C@H]2CC=CCNC2)cc1Cl`
stdout: 5.41
